Tested on: HEK293 (non-expressing parental cells)
EXPERIMENT NOTES: FACS cell surface binding
OUTCOME MEASURE: FACS Cell Binding (Fold Above Background)

# MOLECULE, RECORDED RESULT
measured = [
    ("H1H6958N2: human IgG1 Fc form of H2M6958N2; anti-PRLR, receptor blocking; HCVR/LCVR SEQ ID NOs 290/298 (antibody, V domains shown, human IgG1 Fc) VH: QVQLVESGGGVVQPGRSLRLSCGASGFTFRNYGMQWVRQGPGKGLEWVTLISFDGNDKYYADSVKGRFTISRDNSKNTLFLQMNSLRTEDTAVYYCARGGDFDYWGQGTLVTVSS VL: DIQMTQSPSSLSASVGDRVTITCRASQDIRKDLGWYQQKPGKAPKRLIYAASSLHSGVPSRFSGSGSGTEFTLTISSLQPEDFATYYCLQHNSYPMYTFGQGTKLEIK", 1),
    ("H1H6793P: anti-PRLR antibody, human IgG1 Fc; HCVR/LCVR SEQ ID NOs 146/154 (antibody, V domains shown, human IgG1 Fc) VH: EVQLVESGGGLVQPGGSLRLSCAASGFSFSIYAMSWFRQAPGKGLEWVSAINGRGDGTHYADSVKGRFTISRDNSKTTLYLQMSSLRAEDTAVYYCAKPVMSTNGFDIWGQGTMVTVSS VL: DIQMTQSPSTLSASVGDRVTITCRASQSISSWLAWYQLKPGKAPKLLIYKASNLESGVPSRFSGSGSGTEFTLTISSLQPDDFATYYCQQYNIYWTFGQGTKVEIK", 2),
    ("H1H6781P: anti-PRLR antibody, human IgG1 Fc; HCVR/LCVR SEQ ID NOs 50/58 (antibody, V domains shown, human IgG1 Fc) VH: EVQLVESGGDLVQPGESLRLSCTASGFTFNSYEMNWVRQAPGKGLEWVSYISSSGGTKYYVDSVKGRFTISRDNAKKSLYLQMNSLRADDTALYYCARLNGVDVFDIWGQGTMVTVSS VL: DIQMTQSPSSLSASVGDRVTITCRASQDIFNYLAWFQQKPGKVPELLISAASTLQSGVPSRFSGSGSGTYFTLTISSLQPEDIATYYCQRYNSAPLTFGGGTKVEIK", 1),
    ("H1H6959N2: human IgG1 Fc form of H2M6959N2; anti-PRLR; HCVR/LCVR SEQ ID NOs 306/314 (antibody, V domains shown, human IgG1 Fc) VH: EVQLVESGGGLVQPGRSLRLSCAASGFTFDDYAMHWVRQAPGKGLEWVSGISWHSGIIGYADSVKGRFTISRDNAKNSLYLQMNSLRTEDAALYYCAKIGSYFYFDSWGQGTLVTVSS VL: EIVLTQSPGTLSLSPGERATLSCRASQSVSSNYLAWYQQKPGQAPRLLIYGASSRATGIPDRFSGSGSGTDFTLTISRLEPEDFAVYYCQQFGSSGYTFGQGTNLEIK", 1),
]

Where do these numbers come from? They come from patent US9688764B2.
